- ASSAY_SUMMARY: Inhibition of soybean 15-lipoxygenase
- Design: species or system Glycine max
PARAMETER: IC50 (µM)

Recorded IC50, per entry:
C=CCc1ccc(OC)cc1    64.1
C=CCOc1ccc(NC(=O)c2ccccc2)cc1    3.3
C=CCOc1ccc(OC(=O)c2ccccc2)cc1    6.2

A: C=CCOc1ccc(NC(=O)c2cccc(OC)c2)cc1
B: C=CCOc1ccc(NC(=O)c2ccc(Cl)cc2)cc1
C: C=CCOc1ccc(NC(=O)c2ccc(F)cc2)cc1
Problem: In this exercise, place the 3 compounds in ascending sequence of their recorded IC50. Quick reminder: the answer is the labels in the order asked.
Solution: C, B, A
(C: 3.8 µM, B: 8.8 µM, A: 17 µM)
